Provenance of the data: the OPERA property sets (Mansouri et al. 2018)

property-label: boiling point (°C)
Note: unit °C is implicit; provide only the numeric part.

stdin: Item "CCOCC(=O)OCC" has what recorded boiling point?
stdout: 158

stdin: Item "Cc1ccc(Nc2ccc(C)cc2)cc1" has what recorded boiling point?
stdout: 330

stdin: Item "CC(=O)C(C)(C)O" has what recorded boiling point?
stdout: 140

stdin: Item "C=C(C)CCO" has what recorded boiling point?
stdout: 132

stdin: Item "Cc1ccccc1NC=O" has what recorded boiling point?
stdout: 288

stdin: Item "C=C(C)c1ccc(C)cc1" has what recorded boiling point?
stdout: 185

stdin: Item "COCCC(C)C" has what recorded boiling point?
stdout: 91

stdin: Item "Cl[Si](Cl)(Cl)CCc1ccccc1" has what recorded boiling point?
stdout: 242

stdin: Item "ClCCCBr" has what recorded boiling point?
stdout: 143

stdin: Item "Fc1c(F)c(F)c2c(F)c(F)c(F)c(F)c2c1F" has what recorded boiling point?
stdout: 209

stdin: Item "OCc1ccccc1" has what recorded boiling point?
stdout: 205

stdin: Item "C=CC#CCCC" has what recorded boiling point?
stdout: 110

stdin: Item "Cc1ccc(N(C)C)cc1" has what recorded boiling point?
stdout: 211

stdin: Item "BrCC(Br)CBr" has what recorded boiling point?
stdout: 222

stdin: Item "OCCCCCCO" has what recorded boiling point?
stdout: 250

stdin: Item "CC(C)c1cccc(O)c1" has what recorded boiling point?
stdout: 228

stdin: Item "CCC(C)(C)C(C)(C)C" has what recorded boiling point?
stdout: 140

stdin: Item "Cc1ccccc1CCl" has what recorded boiling point?
stdout: 198

stdin: Item "CC(C)(Cl)CCCl" has what recorded boiling point?
stdout: 147

stdin: Item "C#CC(=O)OC" has what recorded boiling point?
stdout: 104

stdin: Item "Cc1cc(C)c2ccccc2n1" has what recorded boiling point?
stdout: 265

stdin: Item "CN(C)C#N" has what recorded boiling point?
stdout: 164

stdin: Item "CCCCCC1CCCCC1" has what recorded boiling point?
stdout: 204

stdin: Item "CCCOC(C)C" has what recorded boiling point?
stdout: 83

stdin: Item "C=C(CC)CCCC" has what recorded boiling point?
stdout: 120

stdin: Item "CC(C)OC(OC(C)C)OC(C)C" has what recorded boiling point?
stdout: 167

stdin: Item "CCCCCC(=O)OCC" has what recorded boiling point?
stdout: 167

stdin: Item "CN1CCC(O)CC1" has what recorded boiling point?
stdout: 200

stdin: Item "C=CC[Si](Cl)(Cl)Cl" has what recorded boiling point?
stdout: 118

stdin: Item "CCc1cnc2ccccc2c1" has what recorded boiling point?
stdout: 266

* * *

I'd appreciate it if you could supply melting point values for the items below.
Note: unit °C is implicit; provide only the numeric part.

stdin: Item "O=[N+]([O-])c1cc(F)ccc1F" has what recorded melting point?
stdout: -11.7

stdin: Item "Nc1ccc(S(=O)(=O)Nc2ccnn2-c2ccccc2)cc1" has what recorded melting point?
stdout: 181

stdin: Item "O=C(O)c1ccccc1-c1ccccc1C(=O)O" has what recorded melting point?
stdout: 234

stdin: Item "CCCCCC=CC=CC(=O)O" has what recorded melting point?
stdout: 49.5

stdin: Item "O=C(O)C1=CC(=C(c2ccc(O)c(C(=O)O)c2)c2ccc(O)c(C(=O)O)c2)C=CC1=O" has what recorded melting point?
stdout: 300

stdin: Item "Cc1ccc2ccc(C)nc2c1" has what recorded melting point?
stdout: 61

stdin: Item "O=C(CCCl)NCc1ccccc1" has what recorded melting point?
stdout: 94

stdin: Item "O=C(N/N=C/C=C/c1ccc([N+](=O)[O-])o1)c1ccc([N+](=O)[O-])s1" has what recorded melting point?
stdout: 236

stdin: Item "C=CC(=O)Oc1c(Br)cc(Cl)c2cccnc12" has what recorded melting point?
stdout: 100

stdin: Item "CC(=O)NBr" has what recorded melting point?
stdout: 104
